Listing of Ki toward Tyrosine-protein kinase JAK3 (Homo sapiens), each taken from a published source.

Recorded Ki, per entry:
INSERT INTO assay_data (compound, tgt, result) VALUES
  ('c1ccc(C2Nc3ccccc3-c3ncnc4[nH]cc2c34)cc1 (stereo not drawn)', 'Tyrosine-protein kinase JAK3 (Homo sapiens)', '250 to 2500 nM'),
  ('NS(=O)(=O)c1ccc(Nc2nccc(-c3ccc4c(c3)NC(=O)CO4)n2)cc1', 'Tyrosine-protein kinase JAK3 (Homo sapiens)', '< 5000 nM');

Recorded Ki of CCOC(=O)c1c(N)nn2cc(-c3ccncn3)cnc12 , please.
> 5000 nM

What do you get for CC(=O)c1ccccc1-c1cnc2c(-c3ccccn3)c(N)nn2c1 ?
500 to 5000 nM

Another compound to check: CCC(CC)(Nc1ccnc(-c2c[nH]c3ncncc23)n1)C(=O)NCC(F)(F)F
< 500 nM

Next record, please: COc1cc2nc(-c3c[nH]c4ncccc34)nc(NC(C)(C)C(=O)NCCF)c2cc1OC
≥ 100 nM

Similarly, C=CCN(C(=O)c1ccc(-c2ncnc3[nH]ccc23)o1)[C@H](C)c1ccccc1 ?
100 to 500 nM

###

Ki values for Tyrosine-protein kinase JAK3 (Homo sapiens) compiled from several publications are listed below.

Worked examples, 5 molecules total:
INSERT INTO measurements (molecule, tgt, parameter, result) VALUES
  ('Nc1cccc(Nc2nccc(-c3cccc(NC(=O)c4ccccn4)c3)n2)c1', 'Tyrosine-protein kinase JAK3 (Homo sapiens)', 'Ki', '≤ 1 µM'),
  ('Nc1cccc(Nc2nc(N)n(-c3ncc(F)c(N4CCCC4C(=O)NCC(F)(F)F)n3)n2)c1 (centres unmarked)', 'Tyrosine-protein kinase JAK3 (Homo sapiens)', 'Ki', '1 to 10 µM'),
  ('CN1CCN(c2ccc(Nc3ncn(-c4ccccc4)n3)cn2)CC1', 'Tyrosine-protein kinase JAK3 (Homo sapiens)', 'Ki', '> 1 µM'),
  ('Cc1ccc(Nc2nccc(-c3ccc4c(c3)N(C)C(=O)CO4)n2)cc1', 'Tyrosine-protein kinase JAK3 (Homo sapiens)', 'Ki', '< 5 µM'),
  ('CC(C(=O)N1CCCC1)n1cc(-c2ncnc3[nH]ccc23)cn1 (centres unmarked)', 'Tyrosine-protein kinase JAK3 (Homo sapiens)', 'Ki', '0.1 to 0.5 µM');

Quick one: Ki of Fc1ncccc1C1Nc2ccccc2-c2ccnc3[nH]cc1c23 (centres unmarked) ?
0.25 to 2.5 µM

Request: O=C(NCC(F)(F)F)[C@@H]1C[C@H](F)CN1c1nc(-c2c[nH]c3ncncc23)ncc1F
0.5 to 5 µM

Next molecule up: C[C@H](Nc1cc(-c2cnn3cccnc23)nc(OCCN2CCCC2=O)n1)c1ccc(F)cc1F
0.01 to 0.1 µM

###

pKi: −log10 of the molar value.
Please find below pKi data on Tyrosine-protein kinase JAK3 (Homo sapiens, UniProt P52333) compiled from the literature.

Please review the following examples before continuing.
INSERT INTO measurements (molecule, parameter, result) VALUES
  ('CC(C)[C@@H](Nc1ccnc(-c2ccc3ncccc3c2)n1)C(=O)NCC(F)(F)F', 'pKi', '5.00 to 6.00'),
  ('C[C@@H]1CC[C@@H](C)N1C(=O)c1ccc(-c2ncnc3[nH]ccc23)o1', 'pKi', '> 7.00'),
  ('Cn1cc2c3c(ccnc31)-c1cccnc1NC2c1ccc(O)cc1 (stereo not shown)', 'pKi', '5.60 to 6.60'),
  ('Cc1ccc(C2C(=O)Nc3ccccc3-c3ncnc4[nH]cc2c34)cc1 (stereo not shown)', 'pKi', '5.60 to 6.60'),
  ('CN1C(=O)COc2ccc(-c3ccnc(Nc4ccc(S(N)(=O)=O)cc4)n3)cc21', 'pKi', '> 5.30');

Return reported pKi; argument: O=C(NCC(F)(F)F)[C@H]1CCCN1c1ccnc(-c2ccc3c(c2)OCO3)n1
5.00 to 6.00

Note, next up: COC(=O)/C=C/c1ccccc1-c1cnc2c(-c3ccccn3)c(N)nn2c1
< 5.30

Let us now turn to COC(C)(C)CCOc1nc(N[C@@H](C)c2ccc(F)cc2)cc(-c2c(N)nn3cccnc23)n1
7.00 to 8.00

Can you check C[C@H](Nc1cc(-c2cnn3cccnc23)nc(OCCN2CCCCCC2)n1)c1ccc(F)cc1F next?
7.00 to 8.00

What about this molecule? C[C@H](Nc1cc(-c2c(N)nn3cccnc23)nc(O)n1)c1ccc(F)cc1F
7.00 to 8.00

Okay, and Cc1noc(-c2c[nH]c3ncccc23)c1-c1cccc(F)c1F ?
6.00 to 6.70

Request: O=C(NCC(F)(F)F)[C@@H]1CCCCN1c1nc(-c2c[nH]c3ncc(Cl)cc23)ncc1F
≤ 5.70

Can you check Oc1ccc(C2Nc3ccccc3-c3ccnc4[nH]cc2c34)cc1O (stereo not shown) next?
≥ 6.60

Request: CC1CCCN1c1cc(-n2cnc(Nc3ccccc3)n2)ccn1 (stereo not shown)
6.00 to 8.00

Here is the next molecule: CCN(C)CCCc1cnc2c(-c3ccccn3)c(N)nn2c1
< 5.30

Next: CN(C)CC#Cc1cnc2[nH]cc(-c3oncc3-c3cccc(F)c3F)c2c1
6.00 to 6.70

Follow-up item: CC(C)[C@H](Nc1cc(-c2c(N)nn3ccc(C(F)(F)F)nc23)ncn1)c1ccc(F)cc1F
6.30 to 7.00

Record: CCC(C#N)Oc1nc(N[C@@H](C)c2ccc(F)cc2F)cc(-c2cnn3cccnc23)n1 (stereo partly shown)
7.00 to 8.00

Next up: CCN(Cc1ccccc1)C(=O)c1cc(-c2ncnc3[nH]cc(C)c23)c[nH]1
6.30 to 7.00

Fc1ccc(C2Nc3ccccc3-c3ccnc4[nH]cc2c34)c(Cl)c1 (stereo not shown) ?
< 5.60

Cool, now CC1CC1C(=O)Nc1nc(-c2ncnc3[nH]ccc23)cs1 (stereo not shown)
> 7.00

Follow-up entry: Fc1cccc(-c2cnoc2-c2c[nH]c3ncc(-c4ncccn4)cc23)c1F
> 6.70

###

Several publications report Ki on Tyrosine-protein kinase JAK3 (Homo sapiens, UniProt P52333); those values are gathered here.

INSERT INTO results (compound, tgt, result) VALUES
  ('CC(=O)N1[C@H](C)CN(c2cc(-n3cnc(Nc4ccc(NC(=O)OCC(C)(C)C)cc4)n3)ccn2)C[C@@H]1C', 'Tyrosine-protein kinase JAK3 (Homo sapiens, UniProt P52333)', '10 to 1000 nM');

Tyrosine-protein kinase JAK3 (Homo sapiens, UniProt P52333) / Ki / CC(C)N(CCC(F)(F)F)C(=O)c1cc(-c2ncnc3[nH]ccc23)co1 : value?
500 to 5000 nM

Same lookup for c1nc(-c2ccsc2)c2cc[nH]c2n1 , please.
100 to 500 nM

Same again, this time with O=C1COc2ccc(-c3ccnc(Nc4cccc(F)c4)n3)cc2N1CCN1CCOCC1
< 5000 nM

And for N#CCCN(CCC#N)C(=O)c1cc(-c2ncnc3[nH]ccc23)c[nH]1 ?
< 100 nM

Follow-up entry: CCOC(=O)C1CCCN(CCCc2cnc3c(-c4ccccn4)c(N)nn3c2)C1 (stereo not shown)
> 5000 nM

// repeat for CC(=O)Nc1nc2ccc(-c3ncc(F)c(NC(C)(C)C(=O)NCC(F)(F)F)n3)cc2s1 and report
1000 to 10000 nM

Okay, and Fc1cc(C2Nc3ccccc3-c3ccnc4[nH]cc2c34)ccc1Cl (stereo not shown) ?
250 to 2500 nM

Proceed to CS(=O)(=O)Nc1ccc(-c2cnc3[nH]cc(-c4oncc4-c4cccc(F)c4F)c3c2)cc1
< 200 nM

Repeat for the following compound: OB(O)c1cnc2[nH]cc(-c3oncc3-c3cccc(F)c3F)c2c1
< 200 nM

And the next one, COc1ccc(-c2cn3nc(N)c(-c4ccccn4)c3nc2C)cc1 ?
> 5000 nM

Moving on to CN(Cc1cccnc1)c1cc(-c2cnc3c(-c4ccccn4)c(N)nn3c2)ccn1
> 5000 nM

Okay, and CC(C)[C@@H](Nc1nc(-c2c[nH]c(C(=O)NCc3ccccc3)c2)ncc1F)C(=O)NCC(F)(F)F ?
1000 to 10000 nM

Please answer likewise for CC(C)(Nc1nc(-c2c[nH]c3ncncc23)ncc1F)C(=O)NCCF
< 500 nM

Repeat with C[C@H](Nc1cc(-c2cnn3cccnc23)nc(OCC2CCOC2)n1)c1ccc(F)cc1F (stereo partly shown)
10 to 100 nM

Same again, this time with CC(C)[C@@H](Nc1ccnc(-c2ccc(=O)[nH]c2)n1)C(=O)NCC(F)(F)F
10000 to 50000 nM

Next compound: Oc1ccc(C2Nc3ccccc3-c3ccnc4[nH]cc2c34)cc1Cl (stereo not shown)
≤ 250 nM

###

Below: compounds with Ki recorded for Tyrosine-protein kinase JAK3 (Homo sapiens) in separate published works.

Examples from the recorded data:
INSERT INTO measurements (smi, parameter, result) VALUES
  ('Nc1nn2cccnc2c1-c1cc(N[C@@H](CCO)c2ccccc2)nc(N2CCOCC2)n1', 'Ki', '100 to 500 nM'),
  ('CCN(CCC#N)C(=O)c1cc(-c2ncnc3[nH]ccc23)cn1C', 'Ki', '< 100 nM'),
  ('O=C(c1coc(-c2ncnc3[nH]ccc23)c1)N(CC1CC1)CC(F)(F)F', 'Ki', '100 to 500 nM'),
  ('CN(C)c1cccc(-c2cnc3[nH]cc(-c4oncc4-c4cccc(F)c4F)c3c2)c1', 'Ki', '200 to 1000 nM');

Missing value: Ki, Tyrosine-protein kinase JAK3 (Homo sapiens), entry CC(C)C(=O)N1CCCN(c2cc(-n3cnc(Nc4ccccc4)n3)ccn2)CC1 . Fill in?
> 1000 nM

// query: CCN(CCO)C(=O)c1cc(-c2ncnc3[nH]ccc23)c[nH]1
100 to 500 nM

Same lookup for C[C@H](Nc1cc(C(=O)N2CCC[C@H]2CO)nc(-c2c[nH]c3ncncc23)n1)C(=O)NCC(F)(F)F , please.
< 500 nM

Please give the result for NS(=O)(=O)c1cccc(Nc2nccc(-c3ccc(NC(=O)COc4ccccc4)cc3)n2)c1 too.
≤ 1000 nM
